Can you tell me growth inhibition for the items I'm about to list?
# test: NCI Yeast Anticancer Drug Screen. Data for the wt2 strain (AID 169);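 further: 0% = growth of vehicle-treated yeast cultures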
# condition.context: S. cerevisiae wt2 strain growth inhibition; at 3.7 µM; stronger effect = higher value
Compounds without any hit were thinned out: in the full panel of roughly 79,000, 15% have a hit.
Lab book: enter the figure in %, no units written.

[Q] Look up growth inhibition for this compound: CC1(C)C(=O)OC(n2cc(F)c(=O)[nH]c2=O)C1=O (stereo not drawn)
[A] 20

[Q] Look up growth inhibition for this compound: S=C(S)NN1CCOCC1
[A] 31

[Q] Look up growth inhibition for this compound: CCc1ccc(NS(=O)(=O)c2ccccc2)c([N+](=O)[O-])c1
[A] 3

[Q] Look up growth inhibition for this compound: O=[N+]([O-])c1ccc(=S)[nH]c1
[A] 1

[Q] Look up growth inhibition for this compound: CCCCCCCCCCCC1=C(O)C(=O)C=C(O)C1=O
[A] 8

[Q] Look up growth inhibition for this compound: CNC(=O)OCc1c(COC(=O)NC)c(-c2ccc(Cl)c(Cl)c2)n2c1CCC2
[A] -14

[Q] Look up growth inhibition for this compound: COc1cc(/C=C2\CCc3ccccc3C2=O)cc(OC)c1OC
[A] 0

[Q] Look up growth inhibition for this compound: O=C1C2C(C(=O)N1c1ccc(OCc3ccccc3)cc1)C1c3ccccc3C2C2CCCCN21 (stereo not drawn)
[A] -4

[Q] Look up growth inhibition for this compound: c1ccc(-c2ccnc3c2ccc2c(-c4ccccc4)ccnc23)cc1
[A] -3

[Q] Look up growth inhibition for this compound: CCOC(=O)c1cnc2c(C(F)(F)F)cccc2c1N=[N+]=[N-]
[A] 1

[Q] Look up growth inhibition for this compound: O=c1c2ccccc2ncn1COCc1ccccc1
[A] -3

[Q] Look up growth inhibition for this compound: Nc1ccn(C2OC(CO)C3[O][Sn]([c]4ccccc4)([c]4ccccc4)[O]C32)c(=O)n1 (stereo not drawn)
[A] 0

[Q] Look up growth inhibition for this compound: CN=C(N)N/N=C/c1ccc2c(c1)Cc1ccccc1-2
[A] -17

[Q] Look up growth inhibition for this compound: O=C(c1ccc(Cl)cc1Cl)C(Cl)Cl
[A] -7

[Q] Look up growth inhibition for this compound: CN(C)c1ccc(C(C#N)=C(C#N)C#N)cc1
[A] 0

[Q] Look up growth inhibition for this compound: CCC#CCCCOC(=O)c1cc([N+](=O)[O-])cc([N+](=O)[O-])c1
[A] -10

[Q] Look up growth inhibition for this compound: O=C1Nc2ccc(Cl)c(I)c2C1=O
[A] 0

[Q] Look up growth inhibition for this compound: CCCCCCCCC/C=C/C=C/C(=O)NCC(=O)NC1C(O)C(O)C(Nc2ncnc3nc[nH]c23)OC1C(O)CO (stereo not drawn)
[A] 24

[Q] Look up growth inhibition for this compound: CC(C)C1=CCC2C(=C1)CCC1C(C)(C(=O)O)CCCC21C (stereo not drawn) (tested in a mixture with another compound)
[A] -40

[Q] Look up growth inhibition for this compound: O=C(O)C1OC1(c1cccc(Cl)c1)c1ccccc1Cl (stereo not drawn)
[A] -20

[Q] Look up growth inhibition for this compound: O=C(/C=C/c1cccc(Br)c1)c1cccs1
[A] -16

[Q] Look up growth inhibition for this compound: O=C1Nc2ccccc2/C1=C/COc1ccccc1
[A] 1

[Q] Look up growth inhibition for this compound: COc1cc(C2c3cc4c(cc3OC(NNc3ccccc3)C2C)OCO4)cc(OC)c1OC (stereo not drawn)
[A] -13
